- systemTested: Factor X (FX), P00742
- Sequence (P00742 whole entry, looked up): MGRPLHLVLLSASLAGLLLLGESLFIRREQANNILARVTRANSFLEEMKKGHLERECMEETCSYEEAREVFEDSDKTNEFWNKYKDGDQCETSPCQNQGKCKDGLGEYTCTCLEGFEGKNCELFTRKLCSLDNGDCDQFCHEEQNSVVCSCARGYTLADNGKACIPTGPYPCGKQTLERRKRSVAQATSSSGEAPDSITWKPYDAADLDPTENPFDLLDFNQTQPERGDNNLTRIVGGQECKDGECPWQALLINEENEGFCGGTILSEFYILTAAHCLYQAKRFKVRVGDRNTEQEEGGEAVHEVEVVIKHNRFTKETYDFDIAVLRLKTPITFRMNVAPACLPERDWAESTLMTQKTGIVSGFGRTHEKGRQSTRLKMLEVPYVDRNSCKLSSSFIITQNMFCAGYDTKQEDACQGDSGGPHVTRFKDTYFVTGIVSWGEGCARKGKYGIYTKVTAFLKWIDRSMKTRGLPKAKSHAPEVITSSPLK
propertyLabel: KM (µM)
Numbers only, in µM.

Known KM results, listed for orientation:
protein="FIXa-Y155F/K247N/N249S/R318Y/R338E (protein) chain 1: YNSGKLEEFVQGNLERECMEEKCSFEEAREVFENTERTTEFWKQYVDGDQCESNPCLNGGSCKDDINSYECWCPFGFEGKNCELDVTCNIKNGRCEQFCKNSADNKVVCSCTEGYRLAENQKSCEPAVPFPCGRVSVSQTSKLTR chain 2: VVGGEDAKPGQFPWQVVLNGKVDAFCGGSIVNEKWIVTAAHCVETGVKITVVAGEHNIEETEHTEQNRSVIRIIPHHNYNAAINKYNHDIALLELDEPLVLNSYVTPICIADKEYTNIFLKFGSGYVSGWGRVFHKGYSALVLQYLRVPLVDRATCLESTKFTIYNNMFCAGFHEGGRDSCQGDSGGPHVTEVEGTSFLTGIISWGEECAMKGKYGIYTKVSRYVNWIKEKTKLT" val=0.0263
protein="FIXa D203N/F205T/K228N (protein) chain 1: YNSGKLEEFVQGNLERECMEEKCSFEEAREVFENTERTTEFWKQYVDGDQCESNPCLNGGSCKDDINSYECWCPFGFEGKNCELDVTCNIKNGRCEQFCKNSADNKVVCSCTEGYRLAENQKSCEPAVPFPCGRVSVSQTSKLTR chain 2: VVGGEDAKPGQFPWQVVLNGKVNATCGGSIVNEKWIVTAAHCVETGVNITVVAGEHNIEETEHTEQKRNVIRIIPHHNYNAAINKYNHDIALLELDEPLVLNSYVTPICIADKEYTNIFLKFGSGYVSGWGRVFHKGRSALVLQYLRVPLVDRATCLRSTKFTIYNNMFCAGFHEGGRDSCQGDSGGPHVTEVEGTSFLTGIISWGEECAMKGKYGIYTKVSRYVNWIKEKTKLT" val=0.0399

# per-item lookup of KM; items listed below
1. FIXa D203N/F205T/R338E (protein) chain 1: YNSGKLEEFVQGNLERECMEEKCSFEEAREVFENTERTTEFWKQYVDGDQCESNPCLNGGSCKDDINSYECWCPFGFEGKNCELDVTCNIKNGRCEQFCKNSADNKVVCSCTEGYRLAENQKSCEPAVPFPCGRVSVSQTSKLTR chain 2: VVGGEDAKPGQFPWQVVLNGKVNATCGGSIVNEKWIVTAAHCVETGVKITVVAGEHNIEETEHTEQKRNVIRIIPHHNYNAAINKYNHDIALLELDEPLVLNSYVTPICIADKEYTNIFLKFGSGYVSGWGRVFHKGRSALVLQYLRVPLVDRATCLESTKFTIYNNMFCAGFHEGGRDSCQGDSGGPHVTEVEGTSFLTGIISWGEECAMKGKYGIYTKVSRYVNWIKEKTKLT
2. FIXa A103N/N105S/Y155F/R318Y/R338E/R403E/E410N (protein) chain 1: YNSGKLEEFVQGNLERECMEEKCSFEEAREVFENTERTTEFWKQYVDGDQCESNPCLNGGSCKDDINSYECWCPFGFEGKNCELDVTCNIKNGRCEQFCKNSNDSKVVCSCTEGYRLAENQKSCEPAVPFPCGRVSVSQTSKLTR chain 2: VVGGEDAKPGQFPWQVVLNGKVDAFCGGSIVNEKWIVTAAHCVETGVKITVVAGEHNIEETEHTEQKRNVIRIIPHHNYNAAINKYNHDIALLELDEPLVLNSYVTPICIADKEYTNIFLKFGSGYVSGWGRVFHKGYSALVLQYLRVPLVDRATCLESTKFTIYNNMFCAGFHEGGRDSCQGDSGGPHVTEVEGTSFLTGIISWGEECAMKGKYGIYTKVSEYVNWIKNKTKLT
3. FIXa-Y155F/K247N/N249S/R338E/T343R/E410N (protein) chain 1: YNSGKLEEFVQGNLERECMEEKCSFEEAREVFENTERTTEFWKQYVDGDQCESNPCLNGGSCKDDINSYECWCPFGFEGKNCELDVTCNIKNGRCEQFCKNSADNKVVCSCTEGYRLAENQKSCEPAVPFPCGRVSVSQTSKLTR chain 2: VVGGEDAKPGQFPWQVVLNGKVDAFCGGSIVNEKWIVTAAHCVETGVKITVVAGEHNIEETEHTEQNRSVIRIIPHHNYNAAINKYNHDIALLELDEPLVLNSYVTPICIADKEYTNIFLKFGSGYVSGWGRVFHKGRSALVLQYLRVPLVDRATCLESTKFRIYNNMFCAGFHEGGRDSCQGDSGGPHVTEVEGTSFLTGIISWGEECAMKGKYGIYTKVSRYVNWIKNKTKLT
4. FIXa-Y155F/K247N/N249S/R318Y/T343R/R403E/E410N (protein) chain 1: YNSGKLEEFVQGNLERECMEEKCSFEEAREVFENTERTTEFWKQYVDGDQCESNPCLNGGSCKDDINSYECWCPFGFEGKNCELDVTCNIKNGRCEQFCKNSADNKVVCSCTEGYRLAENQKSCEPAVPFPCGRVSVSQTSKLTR chain 2: VVGGEDAKPGQFPWQVVLNGKVDAFCGGSIVNEKWIVTAAHCVETGVKITVVAGEHNIEETEHTEQNRSVIRIIPHHNYNAAINKYNHDIALLELDEPLVLNSYVTPICIADKEYTNIFLKFGSGYVSGWGRVFHKGYSALVLQYLRVPLVDRATCLRSTKFRIYNNMFCAGFHEGGRDSCQGDSGGPHVTEVEGTSFLTGIISWGEECAMKGKYGIYTKVSEYVNWIKNKTKLT
5. FIXa-Y155F/K247N/N249S/T343R/R403E (protein) chain 1: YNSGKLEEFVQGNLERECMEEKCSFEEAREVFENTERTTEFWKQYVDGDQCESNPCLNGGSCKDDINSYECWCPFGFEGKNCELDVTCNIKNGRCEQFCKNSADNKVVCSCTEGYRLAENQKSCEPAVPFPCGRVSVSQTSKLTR chain 2: VVGGEDAKPGQFPWQVVLNGKVDAFCGGSIVNEKWIVTAAHCVETGVKITVVAGEHNIEETEHTEQNRSVIRIIPHHNYNAAINKYNHDIALLELDEPLVLNSYVTPICIADKEYTNIFLKFGSGYVSGWGRVFHKGRSALVLQYLRVPLVDRATCLRSTKFRIYNNMFCAGFHEGGRDSCQGDSGGPHVTEVEGTSFLTGIISWGEECAMKGKYGIYTKVSEYVNWIKEKTKLT

Found:
0.0241
0.0507
0.027
0.0606
0.0596
